test: Inhibitory concentration against […] (breast) cells; assay type: functional; details: Homo sapiens
property: GI50 (nM)
Numbers only, in nM.

Please review the following examples before continuing.
C=C/C=C\C(C)C(OC(N)=O)[C@@H](C)[C@H](O)[C@@H](C)C/C(C)=C\C(C)[C@@H](O)[C@@H](C)/C=C\C(O)C[C@@H]1OC(=O)[C@H](C)[C@@H](O)[C@H]1C (stereo partly specified): 16
COCO[C@H]1[C@@H](C)[C@H](CC/C=C\[C@H](C)[C@H](O)[C@@H](C)/C=C\CC[C@@H](O)[C@H](C)COC(N)=O)OC(=O)[C@@H]1C: 30000
C=C/C=C\[C@H](C)[C@H](OC(N)=O)[C@@H](C)[C@H](O)[C@@H](C)C/C(C)=C\[C@H](C)[C@@H](O)[C@@H](C)/C=C\[C@@H](O)C[C@@H]1OC(=O)[C@H](C)[C@@H](O)[C@H]1C [DISERMOLIDE]: 2600
CC(=O)O[C@H]1C(=O)[C@@]2(C)[C@H]([C@H](OC(=O)c3ccccc3)[C@]3(O)C[C@H](OC(=O)[C@H](O)[C@@H](NC(=O)c4ccccc4)c4ccccc4)C(C)=C1C3(C)C)[C@]1(OC(C)=O)CO[C@@H]1C[C@@H]2O [PACLITAXEL]: 2.4
C=C/C=C\[C@H](C)[C@H](OC(N)=O)[C@@H](C)[C@H](O)CC/C=C\C(C)[C@@H](O)[C@@H](C)/C=C\CC[C@@H]1OC(=O)[C@H](C)[C@@H](O)[C@@H]1C (stereo partly specified): 2100

Then there is this molecule:
Quick one: GI50 of C=C/C=C\[C@H](C)[C@H](OC(N)=O)[C@@H](C)[C@H](O)CC/C=C\C(C)[C@@H](O)[C@@H](C)/C=C\CC[C@@H]1OC(=O)[C@H](C)[C@@H](OCOC)[C@@H]1C (stereo partly specified) ?
870
